// data source = PubChem BioAssay AID1159580

Protocol Description: chemical genetic growth profiling, strain panel (AID 1159580);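 further: tested at 20 µM; growth read once vehicle control cultures reached saturation at 30 °C; 1 = growth at the plate median or of vehicle wells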
Cond: S. cerevisiae deletion strains, growth OD, locus YPR141C, strain kar3, stronger effect = lower value
The campaign covered roughly 5,500 compounds. About 2,000 (36%) were called active. About 18% were inconclusive and are not listed. The list shows a part of the results.
Assay Endpoint: normalized growth
Answers are plain numbers.

CC(Cc1ccc(O)c(O)c1)(NN)C(=O)O (configuration not stated); 0.999

Record normalized growth per entry; entries follow.
1. CCC(CCC(C)C1CCC2C3CC=C4C[C@@H](OC(C)=O)CC[C@]4(C)C3CC[C@]12C)C(C)C (some centres not stated)
2. NC(=O)N/N=C\c1ccc([N+](=O)[O-])o1
3. COc1ccccc1-c1cc(=O)c2c(OC)cccc2o1
4. COP(=S)(OC)Oc1ccc(SC)c(C)c1
5. COc1ccccc1-c1cc(=O)c2cccc(OC)c2o1
6. O=C1OCCN1/N=C\c1ccc([N+](=O)[O-])o1

Output:
[0.975, 0.993, 0.987, 0.988, 1, 0.993]

###

Protocol Description: chemical genetic growth profiling, strain panel (AID 1159580)
Cond: S. cerevisiae deletion strains, growth OD, locus YOR136W, strain idh2, stronger effect = lower value
The campaign covered roughly 5,500 compounds. About 2,000 (36%) were called active. Another 18% or so got no clear call; they are omitted. The list shows a part of the results.
Assay Endpoint: normalized growth
Answers are plain numbers.

Some compounds with recorded normalized growth:
CC(=O)N[C@@H]1[C@@H](C(O)[C@H](O)CO)O[C@](O)(C(=O)O)C[C@@H]1O (stereo partly specified); 0.986
COc1ccc2c(c1O)-c1c(OC)c(OC)cc3c1[C@H](C2)N(C)CC3; 1.02
NCCCCN=C(N)N; 0.972
O=C(O)CNCP(=O)(O)O; 1.02
COc1cc2c(cc1O)CC1c3c(cc(O)c(OC)c3-2)CCN1C (stereo unspecified); 0.99

Input: # normalized growth lookup, item COc1cc2c3cc1Oc1cc(ccc1O)OC1c4c(cc(OC)c(O)c4Oc4ccc(cc4)CC3N(C)CC2)CCN1C (stereo unspecified)
Output: 0.96

###

Protocol Description: chemical genetic growth profiling, strain panel (AID 1159580)
Cond: S. cerevisiae deletion strains, growth OD, locus YCR088W, strain abp1
Out of some 5,500 compounds screened, about 2,000 (36%) were called active. Not shown: some 18% with an inconclusive outcome. Rule as the data show it: active = normalized growth mostly below about 0.91 (no sharp cut-off); inconclusive = no clear call, values can overlap the other calls; inactive = mostly above about 0.92. This is one part of the list.
Respond with a class label; see active, inactive

Before answering, review these 5 worked examples.
C#C[C@]1(O)CCC2C3CCc4cc(OC)ccc4C3CC[C@@]21C (stereo partly specified); inactive
COc1ccc(C=CC(=O)c2ccc(O)cc2O)cc1OC; inactive
CC1=CC(=O)CC(C)(C)C1(O)/C=C/C(C)=C\C(=O)O (stereo unspecified); inactive
COc1ccc(C[C@H](N)C(=O)N[C@@H]2[C@@H](CO)OC(n3cnc4c(N(C)C)ncnc43)[C@@H]2O)cc1 (stereo partly specified); inactive
CC1(C)O[C@@H]2[C@@H](CO[C@@]3(COS(N)(=O)=O)OC(C)(C)O[C@@H]23)O1; inactive

Input: # lookup: test call for `Nc1nccs1`
Output: inactive

Input: Could you please tell me the result logged for COc1ccccc1OCC(O)CN1CCN(CC(=O)Nc2c(C)cccc2C)CC1 (stereo unspecified) in this assay?
Output: inactive

Input: Field: outcome | Entry: `NCc1ccc(S(N)(=O)=O)cc1`
Output: inactive

Input: Dear all, I need the recorded test outcome for `C=CC1=C(C)/C(=C/c2[nH]c(Cc3[nH]c(/C=C4\NC(=O)C(C)=C4C=C)c(C)c3CCC(=O)O)c(CCC(=O)O)c2C)NC1=O` , thank you.
Output: inactive

Input: Record lookup: outcome of this test for C[C@]12CCC3c4ccc(OS(=O)(=O)O)cc4CCC3C1CCC2=O (stereo partly specified) ?
Output: inactive

Input: In this assay, the call recorded for `O=C(O)CNCP(=O)(O)O` was what?
Output: inactive

Input: Which outcome did this test record for the compound `NCCCCN=C(N)N` ?
Output: inactive

Input: I'd appreciate the recorded outcome for `O=C(O)c1cc(=O)c(O)c2c(O)c(O)ccc2c1` from this test.
Output: inactive

Input: // param item: `CC12CCC(CC1)C(C)(C)O2` ; yields the recorded call
Output: inactive

Input: What is the recorded call for this compound in the test? CC[C@@H](C(=O)[C@@H](C)[C@@H](O)[C@H](C)[C@@H]1O[C@@H]([C@@H](CC)C(=O)O)CC[C@@H]1C)[C@H]1OC2(C=C[C@@H](O)[C@]3(CC[C@@](C)([C@H]4CC[C@](O)(CC)[C@H](C)O4)O3)O2)[C@H](C)C[C@@H]1C (stereo partly specified)
Output: active

Input: What did the test return for `COc1cc(/C=C/C(=O)O)ccc1O` ?
Output: inactive

###

Protocol Description: chemical genetic growth profiling, strain panel (AID 1159580);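 further: tested at 20 µM; growth read once vehicle control cultures reached saturation at 30 °C; 1 = growth at the plate median or of vehicle wells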
Cond: S. cerevisiae deletion strains, growth OD, locus YDL035C, strain GPR1
About 2,000 (36%) of roughly 5,500 compounds were called active. Not shown: some 18% with an inconclusive outcome. Cut-off read from the data, not from the text of the source: active = normalized growth mostly below about 0.91 (no sharp cut-off); inconclusive = no clear call, values can overlap the other calls; inactive = mostly above about 0.92. Some of the results follow.
Hi! Could you answer with just one of these? Yes for active, No for inactive

These recorded examples may help you get a feel for the data.
O=c1ccn([C@@H]2O[C@H](COP(=O)(O)OP(=O)(O)OP(=O)(O)O)[C@@H](O)[C@H]2O)c(=O)[nH]1; No
CS(=O)(=O)OCCCCOS(C)(=O)=O; No
C#C[C@]1(O)CCC2C3CCc4cc(O)ccc4C3CC[C@@]21C (stereo partly drawn); Yes

Field: next molecule
Input: // param item: Cc1cccc(CN2CCN(C(c3ccccc3)c3ccc(Cl)cc3)CC2)c1 (stereo not drawn) ; yields the recorded call
Output: Yes

###

Protocol Description: chemical genetic growth profiling, strain panel (AID 1159580);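 further: tested at 20 µM; growth read once vehicle control cultures reached saturation at 30 °C; 1 = growth at the plate median or of vehicle wells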
Cond: S. cerevisiae deletion strains, growth OD, locus YCL029C, strain bik1
Among all 5,500 compounds or so, about 2,000 (36%) were called active. About 18% were inconclusive and are not listed. No stated cut-off is given here; in the data, active means normalized growth mostly below about 0.91 (no sharp cut-off); inconclusive means no clear call, values can overlap the other calls; inactive means mostly above about 0.92. The list shows a part of the results.
Outcomes you can answer with include only these: TRUE for active, FALSE for inactive

Solved entries:
C=CC1=C(C)/C(=C/c2[nH]c(Cc3[nH]c(/C=C4\NC(=O)C(C)=C4C=C)c(C)c3CCC(=O)O)c(CCC(=O)O)c2C)NC1=O; FALSE
Nc1nc2ncc(CNc3ccc(C(=O)N[C@@H](CCC(=O)O)C(=O)O)cc3)nc2c(=O)[nH]1; FALSE
C[C@@H]1CC2C3CCC4=CC(=O)C=C[C@]4(C)[C@@]3(F)[C@@H](O)C[C@]2(C)[C@@]1(O)C(=O)COP(=O)(O)O (some centres undefined); FALSE
COc1ccc(/C=C/c2cc(O)cc(O[C@@H]3O[C@H](CO)[C@@H](O)[C@H](O)[C@H]3O)c2)cc1O; FALSE
C=CCN1CC[C@]23c4c5ccc(O)c4OC2C(=O)CC[C@@]3(O)[C@H]1C5 (some centres undefined); FALSE

Input: Each compound tested received a call. Report the one for COc1cc(C)c2c(c1C=O)Oc1c(c(C)c(O)c3c1C(O)OC3=O)OC2=O (centres undefined) .
Output: FALSE

Input: Entry `CC12CCC(CC1)C(C)(C)O2` : call = ?
Output: FALSE

Input: Would you mind telling me which call this test gave `COc1ccccc1-c1cc(=O)c2c(OC)cccc2o1` ?
Output: FALSE

Input: What classification did `COc1ccccc1-c1cc(=O)c2cccc(OC)c2o1` end up with in this test?
Output: FALSE

Input: Recorded call for `O=C1CN(/N=C\c2ccc([N+](=O)[O-])o2)C(=O)N1` ?
Output: FALSE

Input: Just curious, what result did CC(=O)Oc1cc(C)c2c(c1C(OC(C)=O)OC(C)=O)Oc1c(c(C)c(OC(C)=O)c3c1C(OC(C)=O)OC3=O)OC2=O (centres undefined) get here?
Output: FALSE

###

Protocol Description: chemical genetic growth profiling, strain panel (AID 1159580);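 further: tested at 20 µM; growth read once vehicle control cultures reached saturation at 30 °C; 1 = growth at the plate median or of vehicle wells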
Cond: S. cerevisiae deletion strains, growth OD, locus YGR078C, strain PAC10, stronger effect = lower value
Hit rate of the full screen: of about 5,500 compounds, about 2,000 (36%) were called active. Roughly 18% stayed inconclusive and do not appear here. The list shows a part of the results.
Exercise: state measured normalized growth for each of the compounds provided.
Give bare numbers.

Known normalized growth results, listed for orientation:
CC1=CC(=O)CC(C)(C)C1(O)/C=C/C(C)=C\C(=O)O (configuration not stated); 0.983
COC(=O)c1ccc([N+](=O)[O-])cc1Cl; 0.993
Cc1cc(/C=N/NC(N)=S)c2c(C)ccc(C(C)C)cc1-2; 1.01

Batch: normalized growth for all items listed.
1. CC(C)COC(=O)OCN1C(=O)CN(CCN2CC(=O)N(COC(=O)OCC(C)C)C(=O)C2)CC1=O
2. CN=C1CN(O)C(c2ccccc2)=c2cc(Cl)ccc2=N1
3. O=C(Nc1ccc(Cl)cc1Cl)c1cnccn1
4. NC1CCN(c2cccc(Cl)n2)CC1
5. COc1ccccc1NC(=O)N1CCCN(C(=O)c2cccs2)CC1
6. CCOP(=S)(OCC)Oc1ccc2c(C)c(Cl)c(=O)oc2c1

Output:
1
0.978
0.991
1.01
1.01
0.973
